# Test system: LOX IMVI melanoma
# Procedure summary: NCI tumour cell line growth inhibition, 48 h; in the data active means GI50 below about 0.43 µM; inactive means the rest
The categories you may choose from are active, inactive

Molecule: COc1cc(C2C3=C(COC3=O)N(CCO)c3cc4c(cc32)CCC4)cc(OC)c1OC (centres undefined)
Label class: active
//
Molecule: O=C(/C=C/CN1CCCCC1)Nc1cc2c(Nc3ccc(F)c(Cl)c3F)ncnc2cc1OCCOC(F)F
Label class: inactive
//
Molecule: C=C1C(=O)O[C@H]2[C@H]1CC/C(Cn1cc(CNC(=O)c3cc4ccccc4[nH]3)nn1)=C\CC[C@@]1(C)O[C@@H]21
Label class: inactive
//
Molecule: CN(C)CCCn1c2c(c3ccncc3c1=O)C(=O)c1ccccc1-2
Label class: active
//
Molecule: COc1ccc(C(=O)CC(Cl)=C(Cl)Cl)cc1
Label class: inactive

Task item: How did this test come out for CC(=O)OC1C(OC/C2=C/C3[C@@H](C(C)C)CC=C(C)[C@@H]3CC(OC(=O)/C=C/c3cn(C)cn3)[C@]3(C)C=C[C@@]2(O)O3)OCC(O)C1O (some centres undefined) ?
Reply: active

Task item: How did this test come out for Nc1cc(N)c2nc(-c3ccccc3)c(Sc3ccc(F)cc3)nc2c1 ?
Reply: inactive

Task item: How did this test come out for COc1ccc(C2CC(c3ccc(OC)c(OC)c3)=NN2C(=O)c2cc(OC)c(OC)c(OC)c2)cc1 (centres undefined) ?
Reply: inactive

Task item: How did this test come out for CCN(CC)CCC(CNc1c2ccc(Cl)cc2nc2ccc(OC)cc12)c1ccccc1 (centres undefined) ?
Reply: inactive
